The measurements presented in this section are drawn from ChEMBL document CHEMBL1201862.

tested on: SF-295; assay: NCI tumour cell line growth inhibition, 48 h
Calls of active or inactive are those of the source. Rule as the data show it: active = GI50 up to about 1.1 µM and inactive = higher.
propertyName: GI50

COC(=O)C1Cc2c([nH]c3ccccc23)C=N1 (stereo unspecified)    > 100 µM (inactive)
C/C(=C\[Si](C)(C)c1ccco1)C(C)(O)[C@H](C)O (stereo partly specified)    49.4 µM (inactive)
Cc1nc2ccccc2n1CCc1nc2ccccc2[nH]1    > 100 µM (inactive)
Oc1c(N2CCOCC2)cc(-c2cc(N3CCOCC3)c(O)c3ccccc23)c2ccccc12    1.71 µM (inactive)
C=CC(C)CCC(C/C=C(\C)CCCC(C)C)C(=C)CCCC(C)C (stereo unspecified)    > 100 µM (inactive)
O=C1C(=C2CCCC2)CCC1CN1CCCCC1 (stereo unspecified)    > 100 µM (inactive)

---

system: Hs-578T; experiment: NCI tumour cell line growth inhibition, 48 h
Active and inactive are the calls of the source. Rule as the data show it: active = GI50 up to about 1.1 µM and inactive = higher.
propertyName: GI50

CC(=O)Oc1cc(/C=C/c2ccc(O)cc2)cc(OC(C)=O)c1    58.5 µM (inactive)
O=S(=O)(O)c1ccc2c(/N=N/c3cccc4ccccc34)c(O)c(S(=O)(=O)O)cc2c1    > 100 µM (inactive)
N#C/C(=C1/c2cc([N+](=O)[O-])ccc2-c2c1cc([N+](=O)[O-])cc2[N+](=O)[O-])N1CCCCC1    43.7 µM (inactive)
CC1(C)CC(=O)c2c(nc3c4c([nH]c(-c5ccc([N+](=O)[O-])cc5)c24)CC(C)(C)C3)C1    56.5 µM (inactive)
Cc1c(S(=O)(=O)c2ccccc2)c(N)n(CCN(C)C)c1C    > 100 µM (inactive)

---

test system: MOLT-4; assay: NCI tumour cell line growth inhibition, 48 h
Calls of active or inactive are those of the source. No stated cut-off is given here; in the data, active = GI50 up to about 1.1 µM and inactive = higher.
# GI50 per record follows
propertyName: GI50

CN1CCOC1c1ccccc1O (stereo unspecified)    > 100 µM (inactive)
Clc1cc2ns[s+]c2cc1Cl    29.9 µM (inactive)
N=C(N)N/N=C\c1c(-c2cccc([N+](=O)[O-])c2)nc2sc(Cl)cn12    2 µM (inactive)
C=C(C)C1CCC(C(=O)O)CC1 (stereo unspecified)    > 100 µM (inactive)
CN(C)N1C(=O)S/C(=C\c2ccc([N+](=O)[O-])cc2)C1=O    > 100 µM (inactive)
OCCN1c2ccccc2Sc2ccccc21    > 10 µM (inactive)
CCCN(CCCCC(NC(C)=O)C(=O)NCc1ccccc1)C(=O)N(C)N=O (stereo unspecified)    92 µM (inactive)
O=c1cc(N2CCCC2)[nH]c(=O)n1-c1ccccc1    > 100 µM (inactive)
CCCCCCc1cc2cc(-c3csc(-c4ccc(OC)cc4)n3)c(=O)oc2cc1O    24.3 µM (inactive)
COC(=O)C1Cc2c([nH]c3ccccc23)C=N1 (stereo unspecified)    > 100 µM (inactive)
Sc1ncnc2c1ncn2Cc1ccco1    > 100 µM (inactive)
CN(C)Cc1ccc(C(C)(C)C)cc1-c1cc(C(C)(C)C)ccc1CN(C)C    40.2 µM (inactive)
NCC(=O)N[C@H]1c2ccsc2/C(=N/O)[C@H]1O    > 100 µM (inactive)
COc1ccc(C(=O)C(C(=O)C(=O)NC2C3CC4CC(C3)CC2C4)c2ccc(OC)cc2)cc1 (stereo unspecified)    > 100 µM (inactive)
CCOc1ccc(N/C(=C(/C(Cl)=C(/Cl)Nc2ccccc2)[N+](=O)[O-])n2nnc3ccccc32)cc1    14.8 µM (inactive)
CCCNC(C#N)c1ccc(C(C#N)NCCC)cc1 (stereo unspecified)    37.3 µM (inactive)
COCCOCN(C(=O)C1=CCC2(CC1)OCCO2)c1ccccc1I    > 50 µM (inactive)
CN(C)c1nc(-c2ccccc2)c(C(=O)c2c[nH]c3ccccc23)s1    6.62 µM (inactive)
C/C=C/C[C@@H](C)C(=O)C1C(=O)N[C@@H](C(C)C)C(=O)N(C)CC(=O)N(C)[C@@H](CC(C)C)C(=O)N[C@@H](C(C)C)C(=O)N(C)[C@@H](CC(C)C)C(=O)N[C@@H](C)C(=O)N[C@@H](C)C(=O)N(C)[C@@H](CC(C)C)C(=O)N(C)[C@@H](CC(C)C)C(=O)N(C)[C@@H](C(C)C)C(=O)N1C (stereo partly specified)    2.35 µM (inactive)
O=C1/C(=C\c2cccc(Oc3ccccc3)c2)SC(c2ccccc2)N1c1cc(Cl)ccc1Cl (stereo unspecified)    10.4 µM (inactive)
CC(=NNC(=S)Nc1ccccc1C)c1cccc(C(C)=NNC(=S)Nc2ccccc2C)n1    14.1 µM (inactive)

---

test system: SK-MEL-5; experiment: NCI tumour cell line growth inhibition, 48 h
Active and inactive are the calls of the source. No stated cut-off is given here; in the data, active = GI50 up to about 1.1 µM and inactive = higher.
Labels: active, inactive

CC(C)=CCc1c(O)c(CC2=C(O)C(CC=C(C)C)(C(=O)C(C)C)C(O)=C(C)C2=O)c(O)c(C(=O)C(C)C)c1O (stereo not given)    inactive
CC(C)[C@H](CCl)NC(=O)c1cccc(C(=O)N[C@H](CCl)C(C)C)n1 (stereo in doubt)    inactive
Cc1cc2nc3c(C#N)c4c(c(Nc5ccc(Cl)cc5)n3c2cc1C)CCC4    inactive
O=S(=O)(O)c1ccc2c(/N=N/c3cccc4ccccc34)c(O)c(S(=O)(=O)O)cc2c1    inactive
CC(=O)NNc1nc(C)c(C(/C=C/c2ccc(Cl)cc2)=N\NS(=O)(=O)c2ccc(C)cc2)s1    inactive
O=C1N=CN=C2C=CC(Cl)=C(I)C12 (stereo not given)    inactive
N#CC(C#N)=Cc1ccc(Oc2ccccc2)cc1    inactive
C=CC1(C)CCC2=C(CCC3C(C)(C(=O)OC)CCCC23C)C1=O (stereo not given)    inactive
O=c1cc(-c2ccccc2F)[nH]c2ccc(N3CCCC3)cc12    active
COc1cc(C2C3=C(N=C4SC(C(C)=O)=C(C)N42)c2ccccc2CC3)cc(OC)c1OC (stereo not given)    inactive
CN1C(=S)CSc2ccccc21    inactive
CC1(C)CC(=O)C(=CNc2nc(-c3ccccc3)cs2)C(=O)C1    inactive
CCC1(O)CC(O)c2c(O)c3c(c(O)c2C1C(=O)OC)C(=O)c1cccc(O)c1C3=O (stereo not given)    inactive
CCOC(=O)C(C/C=C/CO)N(C)C(=O)OC(C)(C)C (stereo not given)    inactive
CC(=O)[C@H]1CC[C@@H]2[C@]1(C)CC=C1[C@]23C=C[C@]2(C[C@@H](O)CC[C@]12C)C(C(=O)O)C3C(=O)O (stereo not given in full)    inactive
OC[P+](CO)(CO)C12CC3CC(CC(C3)C1)C2    inactive
Cc1ccc(-c2cc(-c3ccc(Cl)cc3)nc(/N=C3\C(=O)N(CN4CCOCC4)c4ccccc43)n2)cc1    inactive
C=C(Cl)/C(=C\Br)CCC(Cl)C(C)C.C=C(Cl)/C(=C\Cl)CCC(Cl)C(C)C (stereo not given)    inactive
C=CCN1C(=O)CC1N(CC=C)S(=O)(=O)c1ccc(C)cc1 (stereo not given)    inactive
C[C@]12CCC3c4ccc(O)cc4CC[C@H]3C1CC(=O)NC2=O (stereo not given in full)    inactive

---

test system: XF498; test: NCI tumour cell line growth inhibition, 48 h
Active and inactive are the calls of the source. Cut-off read from the data, not from the text of the source: active = GI50 up to about 1.1 µM and inactive = higher.
# GI50 per record follows
propertyName: GI50

N#C/C(=C\c1cccc(O)c1)C(N)=O    > 100 µM (inactive)
COS(=O)CCOC(=O)c1ccccc1SSc1ccccc1C(=O)OCCS(=O)OC (centres undefined)    29.8 µM (inactive)
COc1ccc(C(c2ccc(C(C)C)cc(=O)c2O)c2ccc3cccnc3c2O)cc1 (centres undefined)    2.17 µM (inactive)
Clc1cc2nsnc2c(Cl)n1    17.3 µM (inactive)

---

# GI50 per record follows
test system: HCC 2998; assay: NCI tumour cell line growth inhibition, 48 h
The source made the active and inactive calls. No stated cut-off is given here; in the data, active = GI50 up to about 1.1 µM and inactive = higher.
propertyName: GI50

COC(=O)c1sc(=O)n(-c2ccccc2)c1SCc1ccccc1    > 100 µM (inactive)
CSS(C)(=O)=O    27.8 µM (inactive)
CC(=O)OCCOCn1cnc2c(Cl)nc(Cl)nc21    12.2 µM (inactive)
CN1C2CCC1/C(=C/c1cccc3c1OCO3)C(=O)/C2=C\c1cccc2c1OCO2    > 100 µM (inactive)
O=C(N/C(=C\c1ccc(Br)cc1)c1nc2ccccc2[nH]1)c1ccccc1    17.2 µM (inactive)
O=S(=O)(O)c1cc(/N=N/c2c(O)ccc3ccccc23)cc2c(S(=O)(=O)O)cccc12    > 100 µM (inactive)

---

system: MDA-MB-435; experiment: NCI tumour cell line growth inhibition, 48 h
Structures can show the parent of a compound that is named as a salt. Activity calls are given as the source filed them. No stated cut-off is given here; in the data, active = GI50 up to about 1.1 µM and inactive = higher.
propertyName: GI50

OC1C2CN3CCN(C2)CC1(c1ccccc1)C3 (stereo not given)    > 100 µM (inactive)
c1ccc(SC(Sc2ccccc2)c2ccc3c(c2)OCO3)cc1    > 100 µM (inactive)
CCCCOC(=O)CC(CC(=O)OCCCC)(OC(C)=O)C(=O)OCCCC [ACETYLTRIBUTYL CITRATE]    > 178 µM (inactive)
CC(NC(=O)C(N)CC(=O)O)NC(=O)N1CCOCC1 (stereo not given)    > 100 µM (inactive)
O=[N+]([O-])c1ccc(N/N=C2/CC3=C2CCCCCCCCCC3)c([N+](=O)[O-])c1    > 100 µM (inactive)
